# METHOD_NOTES: Drug metabolism in human serum assessed as psilocin formation at 2.5 uM after 120 mins by LC-MS analysis
# Format: ADME, cell-free
# CONDITION_INFO: 2 h
Entries and their Drug metabolism values follow.
Kindly answer with a numeric value in µM, unit omitted.

# COMPOUND, UNITS_SYMBOL, Drug metabolism
records = [
    ("CN(C)CCc1cn(C(=O)OCc2ccccc2)c2cccc(OC(=O)OCc3ccccc3)c12", "µM", 0),
    ("CN(C)CCc1c[nH]c2cccc(OC(=O)OCC3CC3)c12", "µM", 0.361),
    ("CCC(=O)OCOc1cccc2c1c(CCN(C)C)cn2C(=O)CC", "µM", 0),
    ("CN(C)CCc1c[nH]c2cccc(OP3(=O)OCC(C)(C)CO3)c12", "µM", 0),
    ("CC(C)[Si](Oc1cccc2[nH]cc(CCN(C)C)c12)(C(C)C)C(C)C", "µM", 0.142),
]

Suppose we examine the compound CC(C)[Si](C(C)C)(C(C)C)n1cc(CCN(C)C)c2c(OCc3ccc(F)cc3)cccc21 ; what Drug metabolism value has been reported?
0

Continue with CN(C)CCc1c[nH]c2cccc(OP(=O)(O)O)c12
0

Further, for COCCOCCOCC(=O)Oc1cccc2[nH]cc(CCN(C)C)c12 ?
0

Now the same for CCOC(=O)[C@@H](C)NP(=O)(Oc1ccccc1)Oc1cccc2c1c(CCN(C)C)cn2[Si](C(C)C)(C(C)C)C(C)C (stereo not given in full)
0

Then COC(=O)c1cccc(C(=O)Oc2cccc3[nH]cc(CCN(C)C)c23)c1 ?
3.148

====

# METHOD_NOTES: Drug metabolism in human liver microsomes assessed as psilocin formation at 2.5 uM after 120 mins by LC-MS analysis
# Type: ADME, Microsome
# CONDITION_INFO: 2 h
QUANTITY_NAME: Drug metabolism
Reply with the number and its unit after it.

# MOLECULE, Drug metabolism
data = [
    ("CCC(=O)OCOc1cccc2c1c(CCN(C)C)cn2C(=O)CC", "0.001 µM"),
    ("CCC(=O)Oc1cccc2c1c(CCN(C)C)cn2[Si](C(C)C)(C(C)C)C(C)C", "0.244 µM"),
    ("CN(C)CCc1c[nH]c2cccc(OC(=O)OCc3ccccc3)c12", "0.114 µM"),
    ("CCCC(=O)OCOc1cccc2[nH]cc(CCN(C)C)c12", "0.073 µM"),
    ("CN(C)CCc1c[nH]c2cccc(OP(=O)(Oc3ccccc3)Oc3ccccc3)c12", "0 µM"),
]

What Drug metabolism value was documented for this molecule, CN(C)CCc1c[nH]c2cccc(OC(=O)SCc3ccccc3)c12 ?
2.105 µM

And CC(C)[Si](C(C)C)(C(C)C)n1cc(CCN(C)C)c2c(OC(=O)c3ccc(Br)cc3)cccc21 ?
1.659 µM

Same read-out for CN(C)CCc1c[nH]c2cccc(OC(=O)CC3CC3)c12 ?
1.89 µM

Same thing, different molecule: CN(C)CCc1cn(C(=O)OCc2ccccc2)c2cccc(OC(=O)OCc3ccccc3)c12
0 µM

Likewise for COC(=O)c1cccc(C(=O)Oc2cccc3[nH]cc(CCN(C)C)c23)c1 ?
0.919 µM

Proceed to CN(C)CCc1c[nH]c2cccc(OC(=O)c3c(F)c(F)c(F)c(F)c3F)c12
2.554 µM

What do we get for CC(C)[Si](C(C)C)(C(C)C)n1cc(CCN(C)C)c2c(OC(=O)Sc3ccccc3)cccc21 ?
0.206 µM

Repeat with CC(C)[Si](Oc1cccc2[nH]cc(CCN(C)C)c12)(C(C)C)C(C)C
0 µM

CC(C)[Si](C(C)C)(C(C)C)n1cc(CCN(C)C)c2c(OCc3ccc(F)cc3)cccc21 ?
0 µM

// next record CN(C)CCc1c[nH]c2cccc(OC(=O)OCC(Cl)(Cl)Cl)c12
0.057 µM

Same again, this time with COCCOCCOCC(=O)Oc1cccc2[nH]cc(CCN(C)C)c12
0.494 µM

How about CC(C)OC(=O)OCOc1cccc2c1c(CCN(C)C)cn2COC(=O)OC(C)C ?
0.056 µM

Also CN(C)CCc1c[nH]c2cccc(OP(=O)(O)O)c12 [PSILOCYBIN] , if possible.
0 µM

How about this molecule: CN(C)CCc1c[nH]c2cccc(OC(=O)c3cccc(C(=O)Oc4cccc5[nH]cc(CCN(C)C)c45)c3)c12
0 µM

====

# METHOD_NOTES: Drug metabolism in human intestine S9 fraction assessed as psilocin formation at 2.5 uM after 120 mins by LC-MS analysis
# Type: ADME, subcellular
# CONDITION_INFO: s9, 2 h
QUANTITY_NAME: Drug metabolism
Could you write the number and then its unit?

Here are 5 compounds together with their reported answers.
# COMPOUND, Drug metabolism
measured = [
    ("CCOC(=O)[C@@H](C)NP(=O)(Oc1ccccc1)Oc1cccc2c1c(CCN(C)C)cn2[Si](C(C)C)(C(C)C)C(C)C (some centres undefined)", "0.47 µM"),
    ("CN(C)CCc1c[nH]c2cccc(O[Si](c3ccccc3)(c3ccccc3)C(C)(C)C)c12", "0 µM"),
    ("CC(C)[Si](C(C)C)(C(C)C)n1cc(CCN(C)C)c2c(OC(=O)Sc3ccccc3)cccc21", "0 µM"),
    ("CN(C)CCc1c[nH]c2cccc(OC(=O)OCC(Cl)(Cl)Cl)c12", "0 µM"),
    ("CN(C)CCc1c[nH]c2cccc(OP3(=O)OCC(C)(C)CO3)c12", "0 µM"),
]

Item under review: CN(C)CCc1c[nH]c2cccc(OC(=O)CC3CC3)c12 . Reported Drug metabolism?
1.384 µM

Another compound: CN(C)CCc1c[nH]c2cccc(OP(=O)(O)O)c12
0.621 µM

Here is the next compound: CN(C)CCc1c[nH]c2cccc(OP(=O)(Oc3ccccc3)Oc3ccccc3)c12
0 µM

====

# METHOD_NOTES: Drug metabolism in C57BL/6 mouse assessed as psilocin formation at 10 mg/kg, po measured after 8 hrs by LC-MS analysis
# Type: ADME, organism-based
# CONDITION_INFO: in vivo
QUANTITY_NAME: Drug metabolism

# SMILES_DATA, OBS_VALUE
records = [
    ("CN(C)CCc1c[nH]c2cccc(O[Si](C)(C)C(C)(C)C)c12", "Metabolite_Notdetected"),
    ("CN(C)CCc1c[nH]c2cccc(OC(=O)CC3CC3)c12", "Metabolite_Notdetected"),
    ("CN(C)CCc1cn(C(=O)OCc2ccccc2)c2cccc(OC(=O)OCc3ccccc3)c12", "Metabolite_Notdetected"),
    ("CCCC(=O)OCOc1cccc2[nH]cc(CCN(C)C)c12", "Metabolite_Notdetected"),
]

====

# METHOD_NOTES: Metabolic stability in human serum assessed as half life at 2.5 uM measured upto 120 mins in presence of NADPH by LC-MS analysis
# Assay type: ADME, cell-free
# CONDITION_INFO: 2 h
QUANTITY_NAME: t1/2
State the value, then name its unit.

# SMILES_DATA, QUANTITY_NAME, OBS_VALUE
rows = [
    ("CCC(=O)Oc1cccc2c1c(CCN(C)C)cn2[Si](C(C)C)(C(C)C)C(C)C", "t1/2", "49 min"),
]

What does the record list as t1/2 for CCC(=O)OCOc1cccc2c1c(CCN(C)C)cn2C(=O)CC ?
0.8 min

Next record, please: CCCC(=O)OCOc1cccc2[nH]cc(CCN(C)C)c12
2 min

====

Here the recorded t1/2 is given for each entry.
# METHOD_NOTES: Metabolic stability in human liver microsomes assessed as half life at 2.5 uM measured upto 120 mins in presence of NADPH by LC-MS analysis
# Assay type: ADME, Microsome
# CONDITION_INFO: microsomes, 2 h, 2.5 µM
Kindly answer with a numeric value in min, unit omitted.

Examples with answers:
# SMILES_DATA, UNITS_SYMBOL, OBS_VALUE
data = [
    ("CC(C)[Si](C(C)C)(C(C)C)n1cc(CCN(C)C)c2c(OCc3ccc(F)cc3)cccc21", "min", 27),
    ("COc1ccc(C(=O)Oc2cccc3[nH]cc(CCN(C)C)c23)cc1", "min", 17),
    ("CN(C)CCc1c[nH]c2cccc(OC(=O)c3c(F)c(F)c(F)c(F)c3F)c12", "min", 1),
    ("CN(C)CCc1c[nH]c2cccc(OC(=O)c3cccc4c3OCCO4)c12", "min", 390),
    ("CCCC(=O)OCOc1cccc2[nH]cc(CCN(C)C)c12", "min", 3),
]

Please report the recorded t1/2 for CC(C)[Si](Oc1cccc2[nH]cc(CCN(C)C)c12)(C(C)C)C(C)C .
104

Now this one: CN(C)CCc1cn(C(=O)OCc2ccccc2)c2cccc(OC(=O)OCc3ccccc3)c12
52

What do you get for CC(C)[Si](C(C)C)(C(C)C)n1cc(CCN(C)C)c2c(OC(=O)c3ccc(Br)cc3)cccc21 ?
25
